Reference for the values: patent US20180355059A1

tested_target: T1, recombinant human PCSK9-His protein (Immunogen A) (human, UniProt Q8NBP7 31-692, limits assumed, biotinylated in the ELISA assays)
T1 construct: also called hPCSK9-His; His-tagged hPCSK9; not shown: His tag
experiment: ELISA; antibody 0.0067 nM
measured_quantity: OD450 nm (OD450 nm)

binder	reading_unit	numeric_value
139G1C5, fully human anti-PCSK9 antibody (antibody, human IgG1, V domains shown) VH: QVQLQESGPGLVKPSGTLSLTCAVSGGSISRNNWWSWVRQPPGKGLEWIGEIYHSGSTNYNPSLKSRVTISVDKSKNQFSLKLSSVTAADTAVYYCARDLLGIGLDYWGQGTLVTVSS VL: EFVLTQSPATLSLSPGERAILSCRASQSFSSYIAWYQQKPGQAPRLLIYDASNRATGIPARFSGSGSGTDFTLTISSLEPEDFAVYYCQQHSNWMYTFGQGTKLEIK	OD450 nm	0.26
